Entries and their measured log10(solubility) follow.
# experimental protocol: Compound solubility in water
# condition parameters: water, Compound Solubility in Water, in water
endpoint label: log10(solubility) (log10 of the value in µg/mL)

                                   compound  measured
0  C#CCCCOC1CCC(NC(=O)c2ccn3c(C)cc(C)nc23)C1 (centres unmarked) [III-272]      1.20
1  CO[C@H]1CC[C@@H](C(C)(C)NC(=O)c2ccn3c(C)cc(C)nc23)CC1 [III-238]      0.20
2  CCCO[C@H]1CC[C@H](NC(=O)c2ccn3c(C)cc(C)nc23)CC1 [III-290]      1.24
3  C#Cc1ccc(NC(=O)c2ccn3c(C)cc(C)nc23)c(CO)c1 [III-213]     -0.15
4  Cc1cc(C)n2ccc(C(=O)Nc3ccc(-c4cnn(C)c4)cc3)c2n1 [III-278]     -1.22
